# MEASURED TARGET: phosphorylated EGFR (pEGFR) (Homo sapiens)
# Construct: performed to measure phosphorylated EGFR levels using A431 cells; endogenous in cells
# Sequence (P00533 25-1210): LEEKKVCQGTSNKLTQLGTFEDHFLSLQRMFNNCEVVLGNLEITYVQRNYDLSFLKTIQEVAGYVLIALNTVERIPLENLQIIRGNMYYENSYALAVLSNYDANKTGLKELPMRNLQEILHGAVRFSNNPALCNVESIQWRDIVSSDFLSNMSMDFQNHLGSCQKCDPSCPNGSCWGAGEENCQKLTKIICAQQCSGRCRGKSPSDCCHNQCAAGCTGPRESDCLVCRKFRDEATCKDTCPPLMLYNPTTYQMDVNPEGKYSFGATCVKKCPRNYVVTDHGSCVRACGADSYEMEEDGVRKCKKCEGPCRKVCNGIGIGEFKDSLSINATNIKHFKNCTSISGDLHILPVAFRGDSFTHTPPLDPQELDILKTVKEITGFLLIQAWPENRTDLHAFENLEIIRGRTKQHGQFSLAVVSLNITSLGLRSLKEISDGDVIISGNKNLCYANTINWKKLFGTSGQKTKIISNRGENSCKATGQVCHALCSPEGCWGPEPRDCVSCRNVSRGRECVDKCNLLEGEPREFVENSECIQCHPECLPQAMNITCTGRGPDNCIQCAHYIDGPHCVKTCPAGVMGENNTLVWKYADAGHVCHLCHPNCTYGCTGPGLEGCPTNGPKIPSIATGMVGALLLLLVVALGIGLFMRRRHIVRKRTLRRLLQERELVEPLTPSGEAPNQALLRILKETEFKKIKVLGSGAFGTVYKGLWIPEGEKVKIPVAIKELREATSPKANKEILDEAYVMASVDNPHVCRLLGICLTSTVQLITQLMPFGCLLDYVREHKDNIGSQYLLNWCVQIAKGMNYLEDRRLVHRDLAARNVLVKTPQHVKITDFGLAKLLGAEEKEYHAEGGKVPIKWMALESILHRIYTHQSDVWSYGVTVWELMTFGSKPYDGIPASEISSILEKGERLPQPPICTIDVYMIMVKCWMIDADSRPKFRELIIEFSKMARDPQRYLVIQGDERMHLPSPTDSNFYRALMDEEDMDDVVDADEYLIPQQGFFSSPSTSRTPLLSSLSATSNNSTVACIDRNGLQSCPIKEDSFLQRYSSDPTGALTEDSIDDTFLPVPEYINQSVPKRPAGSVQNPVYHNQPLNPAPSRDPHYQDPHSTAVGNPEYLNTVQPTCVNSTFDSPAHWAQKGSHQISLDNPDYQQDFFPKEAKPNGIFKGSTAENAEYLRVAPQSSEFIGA
# TEST SUMMARY: Detection of phosphorylated EGFR (pEGFR) in EGF-stimulated A431 cells (AlphaLISA)
# RUN CONDITIONS: A431 cells (10% FBS), 4 hours incubation, EGF 30 ng/mL for 10 minutes
Grouping key: IC50. Bins: low range = under 1 µM, mid range = from 1 µM up to 3 µM, high range = 3 µM and over

Ask: Please report the category associated with C=CC(=O)N1[C@H](C)CN(c2ccc3ncnc(Nc4ccc(Oc5ccn6ncnc6c5)c(C)c4)c3n2)C[C@@H]1C , nothing else.
Result: high range

Ask: # repeat for C=CC(=O)N1CCN(c2cc3c(Nc4ccc(Oc5ccn6ncnc6c5)c(C)c4)ncnc3cn2)[C@@H](C)C1
Result: high range

Ask: Then CC#CC(=O)N1C2CCC1CN(c1ccc3ncnc(Nc4ccc(Oc5ccn6ncnc6c5)c(C)c4)c3n1)C2 ?
Result: mid range

Ask: Proceed to C=CC(=O)N1CCN(c2ccc3ncnc(Nc4ccc(Cc5ccc6c(c5)ncn6C)c(C)c4)c3n2)[C@@H](C)C1
Result: mid range

Ask: Repeat for the following compound: C=CC(=O)N1C2CC1CN(c1ccc3ncnc(Nc4ccc(Oc5ccn6ncnc6c5)c(C)c4)c3n1)C2
Result: low range

Ask: Please answer likewise for C=CC(=O)N1CCN(c2ncc3ncnc(Nc4ccc(Cc5ccn6ncnc6c5)c(C)c4)c3n2)C[C@H]1C
Result: high range

Ask: For Cc1cc(Nc2ncnc3ccc(N4CCN(C(=O)/C=C/CN(C)C)[C@H](C)C4)nc23)ccc1Oc1ccc2c(c1)ncn2C then?
Result: mid range

Ask: Note, next up: C=CC(=O)N1CC2CCC(C1)N2c1ccc2ncnc(Nc3ccc(Oc4ccn5ncnc5c4)c(C)c3)c2n1
Result: low range

Ask: Field entry: CC#CC(=O)N1CCN(c2ccc3ncnc(Nc4ccc(Oc5ccn6ncnc6c5)c(C)c4)c3n2)[C@@H](C)C1
Result: high range

Ask: Field entry: Cc1cc(Nc2ncnc3ccc(N4CCN(C(=O)/C=C/CN(C)C)CC4)c(F)c23)ccc1Cc1ccn2ncnc2c1
Result: high range

Ask: Try this compound too: C=CC(=O)N1CCN(c2ccc3ncnc(Nc4ccc(Oc5ccc6c(c5)ncn6C)c(C)c4)c3c2)[C@@H](C)C1
Result: high range

Ask: C=CC(=O)N1CCN(c2ncc3ncnc(Nc4ccc(Cc5ccc6c(c5)ncn6C)c(C)c4)c3n2)CC1 ?
Result: high range

Ask: Quick one: C=CC(=O)N1CCN(c2ccc3ncnc(Nc4ccc(Cc5ccn6ncnc6c5)c(C)c4)c3n2)CC12CC2
Result: low range

Ask: Subsequent entry: C=CC(=O)N1CCN(c2cc3c(Nc4ccc(Cc5ccc6c(c5)ncn6C)c(C)c4)ncnc3cn2)CC1
Result: mid range
